Field: viability at 168 h, 3 µM. Provide a value for each of the substances that follow.
- assay_name: Trypan blue cell viability, 7 days, epidermal progenitors
- Format: cell-based
- measurement_parameters: human, 3 μM, relative to control, read-out: epidermal progenitor viability after 7 days
Ends that are not written are not given here.
Answers are plain numbers, in %.

Ac-YRSRKYSSWY-NH2 [P4C, Acetyl-YRSRKYSSWY-amide] = 100

Alright, here's another substance for you.
Can you share its viability at 168 h, 3 µM? I mean this substance: YRSRKYSSWY [decapeptide-12, YRSRKYSSWY]
100

* * *

- assay_name: in vitro
- Type: cell-based
- measurement_parameters: human, human epidermal progenitors
Ends that are not written are not given here.
readout: viability at 72 h, 30 µM (%)
Answers are plain numbers, in %.

YRSRKYSSWY [decapeptide-12, YRSRKYSSWY] = 98

Alright, here's another substance for you.
Can you share its viability at 72 h, 30 µM? I mean this substance: Ac-YRSRKYSSWY-NH2 [P4C, Acetyl-YRSRKYSSWY-amide]
98

Where do the numbers come from? From patent US20180296456A1.
